The values you see were collected from the supplement of paper PMC11780869.

Test system: Bacillus subtilis
Assay: cleaved RNA product abundance (RNA/gDNA barcode ratio) relative to median wild-type variant (ratio to wild type); higher = more accumulation of the downstream cleavage product
Conditions: experiment (reporter, strain, medium): exp 4a: truncated aprE reporter, strain BJT201 with 2% xylose (RNase J1 expressed); cleavage site: cggR-gapA (positions -7 to +36 mutated)
observed property: cleaved RNA product abundance

Please review the following examples before continuing.
- sequence record: "ACAGACGAAGGAGCCGCAAAGAAATTATTAAGGGGTGAATAATCCCTCAATATAAATATCTCTCACTTATTTAAA"
  result: 0.734
- sequence record: "ACAGACGAAGGAGCCGCAAAGAATTTATTAAGGAATGAATAATCCCTCAATATAAATATCTCTCACTTATTTAAA"
  result: 0.125
- sequence record: "ACAGACGAAGGAGCCGCTAAGAAGTTATTAAGGGATGAATAATCCATCAATATAAATATCTCTCACTTATTTAAA"
  result: 0.186

Q. API: value(readout= cleaved RNA product abundance, system= Bacillus subtilis, query= `ACAGACGAAGGAGCCGCAAAGAACTTATTACGGGATGAATAATCCCTCAATATAAATATCTCTCACTTATTTAAA` )
A. 0.248

Q. API: value(readout= cleaved RNA product abundance, system= Bacillus subtilis, query= `ACAGACGAAGGAGCCGCAAAGAAGTTATTAAGGGATGAATAATCCCCCAATATAAATATCTCTCACTTATTTAAA` )
A. 0.36

Q. API: value(readout= cleaved RNA product abundance, system= Bacillus subtilis, query= `ACAGACGAAGGAGCCGCAAAGCAGTTATTAAGGGATAAATAATCCCTCAATATAAATATCTCTCACTTATTTAAA` )
A. 0.625

Q. API: value(readout= cleaved RNA product abundance, system= Bacillus subtilis, query= `ACAGACGAAGGAGCCGCAAAGAAGTAATTAAGGGATGAATAATCCCTCAGTATAAATATCTCTCACTTATTTAAA` )
A. 0.0878

Q. API: value(readout= cleaved RNA product abundance, system= Bacillus subtilis, query= `ACAGACGAAGGAGCCGCAAAGATGTTATTAATGGATGAATAATCCCTCAATATAAATATCTCTCACTTATTTAAA` )
A. 0.135

Q. API: value(readout= cleaved RNA product abundance, system= Bacillus subtilis, query= `ACAGACGAAGGAGCCGCAAAGAAGTTATTAAGGTATGAATAATCCCTCAATATTAATATCTCTCACTTATTTAAA` )
A. 0.0645

Q. API: value(readout= cleaved RNA product abundance, system= Bacillus subtilis, query= `ACAGACGAAGGAGCCGCAAAGAAGTTATTAAGGAATGAATAATCCCTCAATATAAATATTTCTCACTTATTTAAA` )
A. 0.136
